Quantity: pIC50
Entry type: numeric. Quantity: pIC50, the -log10 of concentration in molar units.

The observed pIC50 for `O=C1CCCC(O)=C1C(=O)C1CCCC1` when tested with 4-hydroxyphenylpyruvate dioxygenase (Sus scrofa) stands at 4.48
